Test system: 556581-035-R-J1-PDC complex spheroid growth
method-summary: Anticancer human tumor 556581-035-R-J1-PDC patient-derived ovarian carcinoma cell line growth inhibition [Asc]; active = viability on the fitted dose curve at most 10% of control; inactive = the rest
applied-conditions: second compound 0.3 µM; first compound 10 µM
Possible outcomes: active, inactive

- compound: "C=C(F)C(=O)N1CCN(c2nc(OCC3CCCN3C)nc3c2CCN(c2cccc4cccc(Cl)c24)C3)CC1CC#N (centres undefined) + CCN1C(C(=O)NC23CCC(C(=O)O)(CC2)CC3)C(c2cccc(Cl)c2F)C2(C(=O)Nc3cc(Cl)ccc32)C12CCCCC2"
  assigned-category: "active"
- compound: "O=C(c1cc(Cc2n[nH]c(=O)c3ccccc23)ccc1F)N1CCN(C(=O)C2CC2)CC1 + CCN1C(C(=O)NC23CCC(C(=O)O)(CC2)CC3)C(c2cccc(Cl)c2F)C2(C(=O)Nc3cc(Cl)ccc32)C12CCCCC2"
  assigned-category: "inactive"
- compound: "C#Cc1c(F)ccc2cc(O)cc(-c3ncc4c(N5CC6CCC(C5)N6)nc(OCC56CCCN5CC(F)C6)nc4c3F)c12 (centres undefined) + CCN1C(C(=O)NC23CCC(C(=O)O)(CC2)CC3)C(c2cccc(Cl)c2F)C2(C(=O)Nc3cc(Cl)ccc32)C12CCCCC2"
  assigned-category: "inactive"
- compound: "C=CC(=O)N1CCN(c2nc(=O)n(-c3c(C)ccnc3C(C)C)c3nc(-c4c(O)cccc4F)c(F)cc23)C(C)C1 (centres undefined) + CCN1C(C(=O)NC23CCC(C(=O)O)(CC2)CC3)C(c2cccc(Cl)c2F)C2(C(=O)Nc3cc(Cl)ccc32)C12CCCCC2"
  assigned-category: "inactive"

###

System: 556581-035-R-J1-PDC complex spheroid growth
method-summary: Anticancer human tumor 556581-035-R-J1-PDC cell line growth inhibition [Asc];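 also: spheroids exposed to agents for 7 days before viability read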
applied-conditions: second compound 0.316 µM; first compound 0.01 µM; stronger effect = lower value

- molecule: "O=C(c1ccc(F)c(F)c1Nc1ccc(I)cc1F)N1CC(O)([C@@H]2CCCCN2)C1 + Cc1c(S(C)(=O)=O)c(-c2cc(F)cc(N3CCN(c4ccc(NS(=O)(=O)c5ccc(NC(CCN6CCC(C(=O)OCCCP(=O)(O)O)CC6)CSc6ccccc6)c(S(=O)(=O)C(F)(F)F)c5)cc4)CC3)c2)c(-c2ccc(Cl)cc2)n1C(C)C"
  viability, T/C / %: 58.8
- molecule: "CCN1CCN(Cc2ccc(Nc3ncc(F)c(-c4cc(F)c5nc(C)n(C(C)C)c5c4)n3)nc2)CC1 + CNC(C)C(=O)NC1CN(S(=O)(=O)c2cccc(S(=O)(=O)N3CCC4CCC(C(=O)NC(c5ccccc5)c5ccccc5)N4C(=O)C(NC(=O)C(C)NC)C3)c2)CCC2CCC(C(=O)NC(c3ccccc3)c3ccccc3)N2C1=O"
  viability, T/C / %: 82.8
- molecule: "NC1CCC(NC2CC2c2ccccc2)CC1 (configuration not stated) + CNC(C)C(=O)NC1CN(S(=O)(=O)c2cccc(S(=O)(=O)N3CCC4CCC(C(=O)NC(c5ccccc5)c5ccccc5)N4C(=O)C(NC(=O)C(C)NC)C3)c2)CCC2CCC(C(=O)NC(c3ccccc3)c3ccccc3)N2C1=O"
  viability, T/C / %: 71.9
- molecule: "O=C(c1ccc(F)c(F)c1Nc1ccc(I)cc1F)N1CC(O)([C@@H]2CCCCN2)C1 + CNC(C)C(=O)NC1CN(S(=O)(=O)c2cccc(S(=O)(=O)N3CCC4CCC(C(=O)NC(c5ccccc5)c5ccccc5)N4C(=O)C(NC(=O)C(C)NC)C3)c2)CCC2CCC(C(=O)NC(c3ccccc3)c3ccccc3)N2C1=O"
  viability, T/C / %: 68.8
- molecule: "CNC(C)C(=O)NC1CN(S(=O)(=O)c2cccc(S(=O)(=O)N3CCC4CCC(C(=O)NC(c5ccccc5)c5ccccc5)N4C(=O)C(NC(=O)C(C)NC)C3)c2)CCC2CCC(C(=O)NC(c3ccccc3)c3ccccc3)N2C1=O (configuration not stated) + Cc1c(S(C)(=O)=O)c(-c2cc(F)cc(N3CCN(c4ccc(NS(=O)(=O)c5ccc(NC(CCN6CCC(C(=O)OCCCP(=O)(O)O)CC6)CSc6ccccc6)c(S(=O)(=O)C(F)(F)F)c5)cc4)CC3)c2)c(-c2ccc(Cl)cc2)n1C(C)C"
  viability, T/C / %: 73.3
- molecule: "NC1CCC(NC2CC2c2ccccc2)CC1 (configuration not stated) + Cc1c(S(C)(=O)=O)c(-c2cc(F)cc(N3CCN(c4ccc(NS(=O)(=O)c5ccc(NC(CCN6CCC(C(=O)OCCCP(=O)(O)O)CC6)CSc6ccccc6)c(S(=O)(=O)C(F)(F)F)c5)cc4)CC3)c2)c(-c2ccc(Cl)cc2)n1C(C)C"
  viability, T/C / %: 82.5
- molecule: "COc1c(OCCCN2CCOCC2)ccc2c3n(c(=NC(=O)c4cnc(N)nc4)nc12)CCN3 + CNC(C)C(=O)NC1CN(S(=O)(=O)c2cccc(S(=O)(=O)N3CCC4CCC(C(=O)NC(c5ccccc5)c5ccccc5)N4C(=O)C(NC(=O)C(C)NC)C3)c2)CCC2CCC(C(=O)NC(c3ccccc3)c3ccccc3)N2C1=O"
  viability, T/C / %: 53.1

###

System: 556581-035-R-J1-PDC complex spheroid growth
method-summary: Anticancer human tumor 556581-035-R-J1-PDC cell line growth inhibition [Asc];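 also: spheroids exposed to agents for 7 days before viability read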
applied-conditions: curve of first compound; second compound 0.1 µM
pIC50: −log10 of the molar value.
quantity: pIC50

- molecule: "O=C(c1ccc(F)c(F)c1Nc1ccc(I)cc1F)N1CC(O)([C@@H]2CCCCN2)C1 + CNC(C)C(=O)NC1CN(S(=O)(=O)c2cccc(S(=O)(=O)N3CCC4CCC(C(=O)NC(c5ccccc5)c5ccccc5)N4C(=O)C(NC(=O)C(C)NC)C3)c2)CCC2CCC(C(=O)NC(c3ccccc3)c3ccccc3)N2C1=O"
  experimental-target: "556581-035-R-J1-PDC complex spheroid growth"
  quantity: "pIC50"
  value-modifier: "="
  test-result: 7.04
- molecule: "Cn1ncnc1[C@H]1c2n[nH]c(=O)c3cc(F)cc(c23)N[C@@H]1c1ccc(F)cc1 + Cc1c(S(C)(=O)=O)c(-c2cc(F)cc(N3CCN(c4ccc(NS(=O)(=O)c5ccc(NC(CCN6CCC(C(=O)OCCCP(=O)(O)O)CC6)CSc6ccccc6)c(S(=O)(=O)C(F)(F)F)c5)cc4)CC3)c2)c(-c2ccc(Cl)cc2)n1C(C)C"
  experimental-target: "556581-035-R-J1-PDC complex spheroid growth"
  quantity: "pIC50"
  value-modifier: "<"
  test-result: 7.00

###

Tested on: 556581-035-R-J1-PDC complex spheroid growth
method-summary: Anticancer human tumor 556581-035-R-J1-PDC cell line growth inhibition [Asc]; active = viability on the fitted dose curve at most 10% of control; inactive = the rest;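 also: spheroids exposed to agents for 7 days before viability read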
applied-conditions: second compound 1 µM; first compound 10 µM
Possible outcomes: active, inactive

- molecule: "C=CC(=O)N1CCN(c2nc(=O)n(-c3c(C)ccnc3C(C)C)c3nc(-c4c(O)cccc4F)c(F)cc23)C(C)C1 (centres undefined) + CNC(C)C(=O)NC1CN(S(=O)(=O)c2cccc(S(=O)(=O)N3CCC4CCC(C(=O)NC(c5ccccc5)c5ccccc5)N4C(=O)C(NC(=O)C(C)NC)C3)c2)CCC2CCC(C(=O)NC(c3ccccc3)c3ccccc3)N2C1=O"
  assigned-category: "inactive"
- molecule: "C=C(F)C(=O)N1CCN(c2nc(OCC3CCCN3C)nc3c2CCN(c2cccc4cccc(Cl)c24)C3)CC1CC#N (centres undefined) + CNC(C)C(=O)NC1CN(S(=O)(=O)c2cccc(S(=O)(=O)N3CCC4CCC(C(=O)NC(c5ccccc5)c5ccccc5)N4C(=O)C(NC(=O)C(C)NC)C3)c2)CCC2CCC(C(=O)NC(c3ccccc3)c3ccccc3)N2C1=O"
  assigned-category: "active"
- molecule: "C#Cc1c(F)ccc2cc(O)cc(-c3ncc4c(N5CC6CCC(C5)N6)nc(OCC56CCCN5CC(F)C6)nc4c3F)c12 (centres undefined) + CNC(C)C(=O)NC1CN(S(=O)(=O)c2cccc(S(=O)(=O)N3CCC4CCC(C(=O)NC(c5ccccc5)c5ccccc5)N4C(=O)C(NC(=O)C(C)NC)C3)c2)CCC2CCC(C(=O)NC(c3ccccc3)c3ccccc3)N2C1=O"
  assigned-category: "inactive"
- molecule: "C=CC(=O)N1CCN(c2nc(=O)n(-c3c(C)ccnc3C(C)C)c3nc(-c4c(O)cccc4F)c(F)cc23)C(C)C1 (centres undefined) + Cc1c(S(C)(=O)=O)c(-c2cc(F)cc(N3CCN(c4ccc(NS(=O)(=O)c5ccc(NC(CCN6CCC(C(=O)OCCCP(=O)(O)O)CC6)CSc6ccccc6)c(S(=O)(=O)C(F)(F)F)c5)cc4)CC3)c2)c(-c2ccc(Cl)cc2)n1C(C)C"
  assigned-category: "inactive"

###

Tested on: 556581-035-R-J1-PDC complex spheroid growth
method-summary: Anticancer human tumor 556581-035-R-J1-PDC cell line growth inhibition [Asc];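 also: spheroids exposed to agents for 7 days before viability read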
applied-conditions: curve of first compound; second compound 0.316 µM
pIC50: −log10 of the molar value.

- compound: "CCN1C(C(=O)NC23CCC(C(=O)O)(CC2)CC3)C(c2cccc(Cl)c2F)C2(C(=O)Nc3cc(Cl)ccc32)C12CCCCC2 (stereo not drawn) + CNC(C)C(=O)NC1CN(S(=O)(=O)c2cccc(S(=O)(=O)N3CCC4CCC(C(=O)NC(c5ccccc5)c5ccccc5)N4C(=O)C(NC(=O)C(C)NC)C3)c2)CCC2CCC(C(=O)NC(c3ccccc3)c3ccccc3)N2C1=O"
  pIC50: "< 5.52"
- compound: "O=C(c1cc(Cc2n[nH]c(=O)c3ccccc23)ccc1F)N1CCN(C(=O)C2CC2)CC1 + CNC(C)C(=O)NC1CN(S(=O)(=O)c2cccc(S(=O)(=O)N3CCC4CCC(C(=O)NC(c5ccccc5)c5ccccc5)N4C(=O)C(NC(=O)C(C)NC)C3)c2)CCC2CCC(C(=O)NC(c3ccccc3)c3ccccc3)N2C1=O"
  pIC50: "< 5.00"
- compound: "NC(=O)C(=Cn1cnc(-c2cc(C(F)(F)F)cc(C(F)(F)F)c2)n1)c1cncnc1 + CNC(C)C(=O)NC1CN(S(=O)(=O)c2cccc(S(=O)(=O)N3CCC4CCC(C(=O)NC(c5ccccc5)c5ccccc5)N4C(=O)C(NC(=O)C(C)NC)C3)c2)CCC2CCC(C(=O)NC(c3ccccc3)c3ccccc3)N2C1=O"
  pIC50: "< 6.52"
- compound: "C#Cc1c(F)ccc2cc(O)cc(-c3ncc4c(N5CC6CCC(C5)N6)nc(OCC56CCCN5CC(F)C6)nc4c3F)c12 (stereo not drawn) + CNC(C)C(=O)NC1CN(S(=O)(=O)c2cccc(S(=O)(=O)N3CCC4CCC(C(=O)NC(c5ccccc5)c5ccccc5)N4C(=O)C(NC(=O)C(C)NC)C3)c2)CCC2CCC(C(=O)NC(c3ccccc3)c3ccccc3)N2C1=O"
  pIC50: 5.16
- compound: "Cn1ncnc1[C@H]1c2n[nH]c(=O)c3cc(F)cc(c23)N[C@@H]1c1ccc(F)cc1 + Cc1c(S(C)(=O)=O)c(-c2cc(F)cc(N3CCN(c4ccc(NS(=O)(=O)c5ccc(NC(CCN6CCC(C(=O)OCCCP(=O)(O)O)CC6)CSc6ccccc6)c(S(=O)(=O)C(F)(F)F)c5)cc4)CC3)c2)c(-c2ccc(Cl)cc2)n1C(C)C"
  pIC50: "< 7.00"
- compound: "NC1CCC(NC2CC2c2ccccc2)CC1 (stereo not drawn) + Cc1c(S(C)(=O)=O)c(-c2cc(F)cc(N3CCN(c4ccc(NS(=O)(=O)c5ccc(NC(CCN6CCC(C(=O)OCCCP(=O)(O)O)CC6)CSc6ccccc6)c(S(=O)(=O)C(F)(F)F)c5)cc4)CC3)c2)c(-c2ccc(Cl)cc2)n1C(C)C"
  pIC50: "< 7.00"
- compound: "COc1c(OCCCN2CCOCC2)ccc2c3n(c(=NC(=O)c4cnc(N)nc4)nc12)CCN3 + CNC(C)C(=O)NC1CN(S(=O)(=O)c2cccc(S(=O)(=O)N3CCC4CCC(C(=O)NC(c5ccccc5)c5ccccc5)N4C(=O)C(NC(=O)C(C)NC)C3)c2)CCC2CCC(C(=O)NC(c3ccccc3)c3ccccc3)N2C1=O"
  pIC50: 7.84
- compound: "O=C(c1ccc(F)c(F)c1Nc1ccc(I)cc1F)N1CC(O)([C@@H]2CCCCN2)C1 + Cc1c(S(C)(=O)=O)c(-c2cc(F)cc(N3CCN(c4ccc(NS(=O)(=O)c5ccc(NC(CCN6CCC(C(=O)OCCCP(=O)(O)O)CC6)CSc6ccccc6)c(S(=O)(=O)C(F)(F)F)c5)cc4)CC3)c2)c(-c2ccc(Cl)cc2)n1C(C)C"
  pIC50: 7.26
- compound: "C=C(F)C(=O)N1CCN(c2nc(OCC3CCCN3C)nc3c2CCN(c2cccc4cccc(Cl)c24)C3)CC1CC#N (stereo not drawn) + CNC(C)C(=O)NC1CN(S(=O)(=O)c2cccc(S(=O)(=O)N3CCC4CCC(C(=O)NC(c5ccccc5)c5ccccc5)N4C(=O)C(NC(=O)C(C)NC)C3)c2)CCC2CCC(C(=O)NC(c3ccccc3)c3ccccc3)N2C1=O"
  pIC50: 5.97
- compound: "Cn1ncnc1[C@H]1c2n[nH]c(=O)c3cc(F)cc(c23)N[C@@H]1c1ccc(F)cc1 + CNC(C)C(=O)NC1CN(S(=O)(=O)c2cccc(S(=O)(=O)N3CCC4CCC(C(=O)NC(c5ccccc5)c5ccccc5)N4C(=O)C(NC(=O)C(C)NC)C3)c2)CCC2CCC(C(=O)NC(c3ccccc3)c3ccccc3)N2C1=O"
  pIC50: "< 7.00"
- compound: "NC(=O)C(=Cn1cnc(-c2cc(C(F)(F)F)cc(C(F)(F)F)c2)n1)c1cncnc1 + Cc1c(S(C)(=O)=O)c(-c2cc(F)cc(N3CCN(c4ccc(NS(=O)(=O)c5ccc(NC(CCN6CCC(C(=O)OCCCP(=O)(O)O)CC6)CSc6ccccc6)c(S(=O)(=O)C(F)(F)F)c5)cc4)CC3)c2)c(-c2ccc(Cl)cc2)n1C(C)C"
  pIC50: "< 6.52"
- compound: "CNC(C)C(=O)NC1CN(S(=O)(=O)c2cccc(S(=O)(=O)N3CCC4CCC(C(=O)NC(c5ccccc5)c5ccccc5)N4C(=O)C(NC(=O)C(C)NC)C3)c2)CCC2CCC(C(=O)NC(c3ccccc3)c3ccccc3)N2C1=O (stereo not drawn) + Cc1c(S(C)(=O)=O)c(-c2cc(F)cc(N3CCN(c4ccc(NS(=O)(=O)c5ccc(NC(CCN6CCC(C(=O)OCCCP(=O)(O)O)CC6)CSc6ccccc6)c(S(=O)(=O)C(F)(F)F)c5)cc4)CC3)c2)c(-c2ccc(Cl)cc2)n1C(C)C"
  pIC50: 7.13
- compound: "O=C(c1cc(Cc2n[nH]c(=O)c3ccccc23)ccc1F)N1CCN(C(=O)C2CC2)CC1 + Cc1c(S(C)(=O)=O)c(-c2cc(F)cc(N3CCN(c4ccc(NS(=O)(=O)c5ccc(NC(CCN6CCC(C(=O)OCCCP(=O)(O)O)CC6)CSc6ccccc6)c(S(=O)(=O)C(F)(F)F)c5)cc4)CC3)c2)c(-c2ccc(Cl)cc2)n1C(C)C"
  pIC50: "< 5.00"
